Observed Ki for UniProtKB Q9Y5N1, reported per entry below.
Write the value in nM as a bare number.

| MOLECULE | OBSERVED RESULT |
| --- | --- |
| COc1ccc(C2CN(C)Cc3cc(OC[C@H]4CN(C5CC5)CCO4)ccc32)cc1 (single isomer, unassigned) [Example 261A] | 73 |
| COc1ccc(C2CN(C)Cc3cc(OCCCN(C4CC4)C4CCN(C)CC4)ccc32)cc1 (stereo not drawn) | 61 |
| COc1cccc(C2CN(C)Cc3cc(OC4CCNCC4)ccc32)c1 (stereo not drawn) | 182 |
| COc1cccc(C2CN(C)Cc3cc(OC4CCN(C5CCC5)CC4)ccc32)c1 (stereo not drawn) | 2 |
| COc1ccc(C2CN(C)Cc3cc(OCCCN4CC(C(c5ccccc5)c5ccccc5)C4)ccc32)cc1 (stereo not drawn) | 5000 |
| COc1ccc(C2CN(C)Cc3cc(OCCCN4Cc5ccccc5C4)ccc32)cc1 (stereo not drawn) | 25 |
| COc1ccc(C2CN(C)Cc3cc(OCC4CCNCC4)ccc32)cc1F (stereo not drawn) | 70 |
| CN1Cc2cc(OCCCN3CCC(F)CC3)ccc2C(c2cccc(OC(F)(F)F)c2)C1 (stereo not drawn) | 12 |

For the molecule shown here, COc1ccc(C2CN(C)Cc3cc(OCCCN4CCC(F)(F)CC4)ccc32)cc1 (stereo not drawn) , give the reported Ki. 4

Consider the molecule shown here: COc1ccc(C2CN(C)Cc3cc(OCC(O)CN4CCCCC4)ccc32)cc1 (stereo not drawn) What is its recorded Ki? 3

Using the record for CSc1ccc(C2CN(C)Cc3cc(OCCCN4CCC(F)CC4)ccc32)cn1 (stereo not drawn) , report its Ki. 5

Reported Ki for CCOC(=O)C1CCN(CCCOc2ccc3c(c2)CN(C)CC3c2ccc(OC)cc2)CC1 (stereo not drawn) : what is it? 172

What does the data say about its Ki? Entry: COc1ccc(C2CN(C)Cc3cc(OC[C@H]4CN(C(C)C)CCO4)ccc32)cc1 (single isomer, unassigned) [Example 256A] 7

// query Ki value for entry COc1ccc(C2CN(C)Cc3cc(OC4CCNCC4)ccc32)cc1F (stereo not drawn) 119

# get_value(readout='Ki', item= COc1ccc(C2CN(C)Cc3cc(OCCCN(C)C4CC4)ccc32)cc1 (stereo not drawn) ) 3

Would you mind telling me what Ki value was observed for CSc1ccc(C2CN(C)Cc3cc(OCCCN4CCCCC4)c(C)cc32)cc1 (stereo not drawn) ? 6

Quick one: Ki of COc1ccc(C2CN(C)Cc3cc(OCCCN4CC[C@@H](N(C)C)C4)ccc32)cc1 (stereo in doubt) ? 1

Which Ki is reported for this molecule? COc1ccc(C2CN(C)Cc3cc(OCCCN4CCN(c5nccs5)CC4)ccc32)cc1 (stereo not drawn) 227

Which Ki value is on record for COc1ccc(C2CN(C)Cc3cc(OCCCN4CCCCC4CCO)ccc32)cc1 (stereo not drawn) ? 7

What value of Ki has been recorded for this entry: COc1ccc(C2CN(C)Cc3cc(C#CCCN4CCOCC4)ccc32)cc1 (stereo not drawn) 86

Would you mind telling me what Ki value was observed for COc1ccc(C2CN(C)Cc3c2ccc(OCCCN2CCOCC2)c3C)cc1 (stereo not drawn) ? 44

Please report the recorded Ki for COc1ccc(C2CN(C)Cc3cc(OCCCN4CCN(c5ccncc5)CC4)ccc32)cc1 (stereo not drawn) . 2

Can you share its Ki? I mean this molecule: CCCNCCCOc1ccc2c(c1)CN(C)CC2c1ccc(OC)cc1 (stereo not drawn) 61

Given COc1ccc(C2CN(CCCO)Cc3cc(OCCCN4CCCCC4)ccc32)cc1 (stereo not drawn) , state its recorded Ki. 1

Endpoint output: Ki of CCN(CC)CCCOc1ccc2c(c1)CN(C)CC2c1ccc(OC)cc1 (stereo not drawn) . Value? 0.7

So what's the measured Ki for this one? COc1cccc(C2CN(C)Cc3cc(OC4CCN(C)CC4)ccc32)c1 (stereo not drawn) 6

Consider the molecule shown here: CN1Cc2cc(OCCCN3CCOCC3)ccc2C(c2ccc(Cl)c(Cl)c2)C1 (stereo not drawn) What is its recorded Ki? 3

----------
target: Rat SERT (Rattus norvegicus, UniProt P31652); construct: A rat brain without cerebellum (Zivic Laboratories, Inc.—Pittsburgh, Pa.) was homogenized; tissue Zivic Laboratories, Inc; host or cells: rat brain without cerebellum, membranes; assay: Rat brain SERT binding ([3H]-citalopram displacement); settings: rat brain membranes without cerebellum, 0.6 nM [3H]-citalopram, 60 min at 25° C.; read-out: Rat SERT Ki
Sequence (P31652 whole entry): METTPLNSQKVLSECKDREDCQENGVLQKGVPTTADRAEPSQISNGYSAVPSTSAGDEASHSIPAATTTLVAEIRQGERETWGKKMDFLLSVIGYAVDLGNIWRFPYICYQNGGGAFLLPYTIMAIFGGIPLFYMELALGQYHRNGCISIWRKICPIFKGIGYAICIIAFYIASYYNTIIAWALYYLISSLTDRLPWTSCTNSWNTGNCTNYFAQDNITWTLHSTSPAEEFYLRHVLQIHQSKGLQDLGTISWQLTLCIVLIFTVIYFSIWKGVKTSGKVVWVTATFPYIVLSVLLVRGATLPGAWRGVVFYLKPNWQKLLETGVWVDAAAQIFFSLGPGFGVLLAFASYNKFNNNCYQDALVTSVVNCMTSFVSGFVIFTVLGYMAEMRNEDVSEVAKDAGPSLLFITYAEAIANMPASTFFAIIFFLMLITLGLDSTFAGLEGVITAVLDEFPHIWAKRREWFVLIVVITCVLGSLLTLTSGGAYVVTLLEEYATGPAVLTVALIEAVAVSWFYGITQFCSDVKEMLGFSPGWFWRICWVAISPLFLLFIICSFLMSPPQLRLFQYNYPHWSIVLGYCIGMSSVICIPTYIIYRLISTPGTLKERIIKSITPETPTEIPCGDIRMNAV
READOUT LABEL: pKi
# pKi = -log10(concentration in molar units)

Worked examples follow.
| MOLECULE | pKi |
| --- | --- |
| CN1Cc2cc(OCCCN3CCC(F)CC3)ccc2C(c2ccc(Cl)c(Cl)c2)C1 (stereo not shown) | 8.10 |
| COc1ccc(C2CN(C)Cc3cc(OCC4CN(C(C)C)CCO4)ccc32)cc1 (stereo not shown) | 8.05 |
| CCCN1CCC(COc2ccc3c(c2)CN(C)CC3c2ccc(OC)cc2F)CC1 (stereo not shown) | 8.05 |

Alright, here's another molecule for you.
Name the reported pKi value associated with the molecule COc1ccc(C2CN(C)Cc3cc(OCC4CCNCC4)ccc32)c(F)c1 (stereo not shown) 8.22

----------
biological target: human H3 receptor (Homo sapiens); construct: expressed in transfected cells; assay: Cyclic AMP accumulation (β-galactosidase reporter, Schild analysis); format: cell-based; conditions: SK-N-MC cells expressing human H3 receptor and CRE-β-galactosidase reporter; histamine agonist, forskolin 5 μM; Schild regression of pEC50 values; read-out: pA2 (converted)
Sequence (Q9Y5N1 whole entry): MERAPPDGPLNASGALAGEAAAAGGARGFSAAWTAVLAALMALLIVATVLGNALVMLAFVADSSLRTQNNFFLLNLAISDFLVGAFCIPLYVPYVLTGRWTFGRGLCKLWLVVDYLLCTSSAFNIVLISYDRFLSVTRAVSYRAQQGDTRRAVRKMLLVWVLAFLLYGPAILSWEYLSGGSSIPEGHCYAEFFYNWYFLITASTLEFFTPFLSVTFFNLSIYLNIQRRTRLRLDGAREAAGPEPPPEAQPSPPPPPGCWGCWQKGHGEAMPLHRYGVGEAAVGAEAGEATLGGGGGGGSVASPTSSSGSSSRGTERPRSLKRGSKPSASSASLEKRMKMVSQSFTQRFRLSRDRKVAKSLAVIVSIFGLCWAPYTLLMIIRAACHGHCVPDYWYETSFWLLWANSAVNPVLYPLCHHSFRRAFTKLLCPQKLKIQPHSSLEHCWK
READOUT LABEL: Kb (nM)
Return type: number; implicit unit nM.

Look over these answered cases.
| COMPOUND | STUDY TARGET | Kb / nM |
| --- | --- | --- |
| CN1Cc2cc(C#CCCN3CCCCC3)ccc2C(c2ccc(F)cc2)C1 (stereo not shown) [Example 279] | human H3 receptor (Homo sapiens) | 3.16 |
| COc1ccc(C2CN(C)Cc3cc(OCCCN4CCOCC4)ccc32)cc1 (stereo not shown) [Example 9] | human H3 receptor (Homo sapiens) | 2.51 |
| CN1Cc2cc(OCCCN3CCC(F)CC3)ccc2C(c2ccc(Cl)c(Cl)c2)C1 (stereo not shown) [Example 58] | human H3 receptor (Homo sapiens) | 31.6 |

# ---- query compound ----
Item CSc1ccc(C2CN(C)Cc3cc(OCC4CN(C(C)C)C4)ccc32)cc1 (stereo not shown) [Example 236] has what recorded Kb? 7.94
